B1: F1*; the commonest letter at each place (parent)
chain: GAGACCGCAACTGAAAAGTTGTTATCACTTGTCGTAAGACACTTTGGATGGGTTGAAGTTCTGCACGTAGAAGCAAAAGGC

- Variants of: B1
- measurement_notes: fraction ligated after 30 min (ligated reads / total reads); higher = more ligase activity
- run_parameters: with F1*sub RNA substrate (template-directed ligation), 42 °C
experimental_readout: fraction ligated
The reply should be a number, written without any unit.

These recorded examples may help you get a feel for the data.
[[record]]
entry_sequence = "GAGACCGCAACTGAAAAGTTGTTATCACTTGTCGTAAGACATTTTGGATGGGTTGATGTTCTGCACGTAGAAGCAAAAGGC [C42T A57T]"
endpoint_result = 0.847

[[record]]
entry_sequence = "GAGACCGCAACTGAAAAGTTGTTATCGCTTTTCGTAAGACACTTTGGATGGGTTGAAGTTCTGCACGTAGAAGCAAAAGGC [A27G G31T]"
endpoint_result = 0.791

[[record]]
entry_sequence = "GAGACCGCAACTGAAAAGTTGTTATCACTTGTCGAAAGACACTTTGGATGGGTTGCAGTTCTGCACGTAGAAGCAAAAGGC [T35A A56C]"
endpoint_result = 0.802


Returns the measured fraction ligated for the input variant. Input: GAGACCGCAACTGAAAAGTTGTTCTCACTTGTCGTAAGCCACTTTGGATGGGTTGAAGTTCTGCACGTAGAAGCAAAAGGC [A24C A39C]
0.131
